# Target or test system: T1, THD1 K401A (UniProt P26039 1-405, K401A)
# T1 construct: talin-1 (TLN1) head domain, residues 1-405, K401A; source: E. coli (DE3) Rosetta 2, purified (IMAC, SEC); not shown: His10-SUMO, N-terminal, cleaved
# T1 sequence (P26039 1-405 K401A): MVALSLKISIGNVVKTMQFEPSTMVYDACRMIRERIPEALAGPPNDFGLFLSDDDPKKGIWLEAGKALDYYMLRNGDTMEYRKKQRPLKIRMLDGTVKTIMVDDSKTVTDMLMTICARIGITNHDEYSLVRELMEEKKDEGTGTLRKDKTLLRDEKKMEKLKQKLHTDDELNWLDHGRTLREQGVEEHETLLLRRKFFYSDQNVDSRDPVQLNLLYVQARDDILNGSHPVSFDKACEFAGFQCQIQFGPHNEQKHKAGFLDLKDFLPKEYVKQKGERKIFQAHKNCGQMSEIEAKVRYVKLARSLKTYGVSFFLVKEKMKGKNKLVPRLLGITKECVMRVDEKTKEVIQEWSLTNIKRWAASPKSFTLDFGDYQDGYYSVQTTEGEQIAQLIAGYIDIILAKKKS
# Assay remarks: MST; apparent; THD1 or THD1 mutants titrated to 488–β3-CT in the presence of 30-40 µM KIND2; MST buffer
# Condition label: both partners purified
No end group written: not given here.
Measure name: Kd (µM)
Return type: number; implicit unit µM.

Can you share its Kd? I mean this binder: {ATTO 488}-KLLITIHDRKEFAKFEEERARAKWDTANNPLYKEATSTFTNITYRGT (peptide, UniProt O54890 741-787, looked up, integrin β3 cytoplasmic tail (β3-CT); source: synthetic peptide (MPIB Core Facility)) [ATTO 488-labeled integrin β3 cytoplasmic tail (488–β3-CT)] 148
